Let's look at some molecules and their measured inhibition.
protocol.notes: 384-well plate pilot, post-Golgi transport modulator project, inhibition of yeast transport mutant growth (AID 636)
condition.parameters: absorbance 615 nm, about 18 h, stronger effect = higher value

molecule	unit.of.measurement	inhibition
COC(=O)c1c(C(=O)OC)n(CCCN)c2ccc(C)cc12	%	-0.52
CC(=O)SCCC(=O)Nc1ccccc1	%	-7.12
Brc1ccc(-c2nnc3sc(CN4CCC5(CC4)OCCO5)cn23)cc1	%	-2.08
COc1ccc(C(C(C(=O)c2cccs2)N2CCOCC2)N2CCOCC2)cc1OC (stereo unspecified)	%	-1.97
O=C1c2ccccc2C(Nc2ccc3c(c2)OCCO3)N1Cc1ccco1 (stereo unspecified)	%	4.23
CSc1nnc(-c2cnccn2)n1C	%	-0.39
O=C(Nc1ccccc1C(=O)N1CCOCC1)C1COc2ccccc2O1 (stereo unspecified)	%	-0.53
CCC(c1nnc(SCC(=O)Nc2ccc(C(=O)Nc3ccccc3OC)cc2)o1)N(C)C (stereo unspecified)	%	-6.3
Cc1nc(NC(=O)c2ccccc2)sc1-c1csc(NCc2ccco2)n1	%	34.6
CCCC1CCC(C(=O)Nn2c(C)nc3ccccc3c2=O)CC1 (stereo unspecified)	%	-3.16
Cc1ccc2[nH]c(=O)c(C(c3nnnn3CCc3ccccc3)N3CCOCC3)cc2c1 (stereo unspecified)	%	-5.95

---

protocol.notes: growth suppression of yeast trafficking mutant, preliminary HTS, modulators of trafficking downstream of Golgi apparatus project, 1536-format plate, OD 615 nm (AID 637)
condition.parameters: yeast transport mutant growth, absorbance 615 nm, 18 h; stronger effect = higher value
property.label: inhibition (%)

compound	property.label	unit.of.measurement	reported.result
Cc1cccc(N(CC(=O)Nc2ccc(CC#N)cc2)S(C)(=O)=O)c1	inhibition	%	2.74
Cc1ccc(S(=O)(=O)NC(C)C(=O)Nc2ccc(C(N)=O)cc2)cc1 (stereo unspecified)	inhibition	%	-5.81
COc1ccccc1NC(=O)N1c2ccc(F)cc2CCC1C (stereo unspecified)	inhibition	%	3.02
CCN(CCCc1ccccc1)CCCc1ccccc1	inhibition	%	15
Cc1oncc1C(=O)Nc1ccc(C(F)(F)F)cc1	inhibition	%	-0.83
COc1ccc(CN(Cc2cc3cc4c(cc3[nH]c2=O)OCO4)C(=O)NC2CCCCC2)cc1	inhibition	%	-1.27
NC(=O)N1c2ccccc2C=Cc2ccccc21	inhibition	%	3.17
CCOc1cccc(-n2nnnc2-c2ccc(OC)cc2)c1	inhibition	%	-4.6
COc1ccc(C(O)C(CN2CCOCC2)c2ccccc2)cc1F (stereo unspecified)	inhibition	%	1.64
CN(C(=O)C1CCOC1)c1nnc(-c2cccnc2)s1 (stereo unspecified)	inhibition	%	19.4
CC(=O)O[C@@]12CO[C@@H]1C[C@H](O)[C@@]1(C)C(=O)[C@H](O)C3=C(C)[C@@H](OC(=O)[C@H](O)[C@@H](NC(=O)OC(C)(C)C)c4ccccc4)C[C@](O)([C@@H](OC(=O)c4ccccc4)[C@H]21)C3(C)C	inhibition	%	-2.33
O=C1CCc2cc(OCCCCc3nnnn3C3CCCCC3)ccc2N1	inhibition	%	-4
CSC1=C(C#N)C(c2ccc(C)cc2)C2=C(CCCC2=O)N1 (stereo unspecified)	inhibition	%	-0.95
Cc1ccc(Cl)c(Nc2ccccc2C(=O)O)c1Cl	inhibition	%	4.67
COC(=O)C1=C(N)Oc2cc(C)n(Cc3ccncc3)c(=O)c2C1c1cccnc1 (stereo unspecified)	inhibition	%	0.97
O=S(=O)(c1ccc(Oc2ccc(-c3nnco3)cc2)nc1)N1CCC(Cc2ccccc2)CC1	inhibition	%	-10.3
CN(C)CC(C(=O)c1ccccc1)c1ccccc1 (stereo unspecified)	inhibition	%	-4.33
CC(C)Oc1ccc(C2C(C(=O)c3ccco3)=C(O)C(=O)N2CCCN(C)C)cc1 (stereo unspecified)	inhibition	%	8.2
CCN(CC)S(=O)(=O)c1ccc(NC(=O)c2cccc3c2C(=O)N(CCOC)C3)cc1	inhibition	%	-5.45
COCCNC(=O)NC(=O)COC(=O)Cc1ccc2c(c1)OCCO2	inhibition	%	3.82
COc1ccc(CCN2CC(O)=C(c3nc4ccccc4c(=O)[nH]3)C2=N)cc1OC	inhibition	%	1.8

---

protocol.notes: reversal of MRP1-mediated doxorubicin resistance, pilot screen, H69AR cells, doxorubicin co-treatment (AID 601)
condition.parameters: H69AR cells, CellTiter-Glo, 72 h; compound alone cytotoxicity; at 10 µM
Let's look at some molecules and their measured viability.
property.label: viability (%)

molecule	unit.of.measurement	reported.result
CC(=O)/C(C[N+]1(C)CCCCC1)=N\O	%	105
CC(C)COC(=O)C1C2C=CC3(CN(C(C)c4ccc(Br)cc4)C(=O)C13)O2 (stereo unspecified)	%	94.9
CCC(=O)Nc1cc(C)c(NC(=O)C23CC4CC(CC(C4)C2)C3)cn1	%	107
N#Cc1c(SCC(=O)N2CCOCC2)nsc1SCC(=O)N1CCOCC1	%	97.2
COc1ccc(Cc2nc3ccc(S(N)(=O)=O)cc3[nH]2)cc1OC	%	99.9
O=C(NC1CCCC1)C(c1cccs1)N(Cc1ccco1)C(=O)Cn1nnc(-c2cccs2)n1 (stereo unspecified)	%	92.8

---

protocol.notes: SK-BR-3 cell growth inhibitors, pilot screen, 24 h, human (AID 572);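 note: compound exposure lasted between 18 and 24 h rather than exactly 24 h; 100% = carrier-treated control wells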
condition.parameters: SK-BR-3 viability, CellTiter-Glo luminescence, at 10 µM, stronger effect = lower value
Let's look at some compounds and their measured viability.
property.label: viability (%)

compound	reported.result
COC(=O)c1sc(N)c(C(=O)OC)c1COC(=O)C1CC(=O)N(Cc2ccco2)C1 (stereo not given)	84
Cc1ccc(NC(=O)COS(=O)c2ccc(C)cc2)cc1 (stereo not given)	97
O=C(CN1CCN(Cc2ccccc2)CC1)Nc1ccc(Cl)cn1	94
Cc1ccc(Cl)cc1N1CCN(C(=O)CN2C(=O)c3cccc4cccc2c34)CC1	94.5
CCn1cc(C(=O)NCc2ccco2)c(=O)c2cc(F)c(N3CCN(C(=O)c4ccco4)CC3)cc21	94
Nc1nc2n(n1)C(c1cccc(Cl)c1)CC(c1ccc(F)cc1)N2 (stereo not given)	86.5
Clc1ccc(Cl)c(-c2nn3c(COc4ccccc4)nnc3s2)c1	96
CCCCc1nc(NCCN2CCOCC2)c(C#N)c2c1COC(C)(C)C2	76
CCc1ccccc1N1C(=O)C2CC(C)=C(C)CC2C1=O (stereo not given)	89
Cc1ccc(S(=O)(=O)N2CCCN(S(=O)(=O)C3CCS(=O)(=O)C3)CC2)cc1 (stereo not given)	124

---

Let's look at some compounds and their measured viability.
protocol.notes: SK-BR-3 cell growth inhibitors, pilot screen, 24 h, human (AID 572);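 note: compound exposure lasted between 18 and 24 h rather than exactly 24 h; 100% = carrier-treated control wells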
condition.parameters: SK-BR-3 viability, CellTiter-Glo luminescence, at 10 µM, stronger effect = lower value
Active and inactive are the calls of the source.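 Rule for the calls: active = viability at or below 10% of carrier control in both of two separate runs; inconclusive = viability at or below 10% in only one of the two runs; inactive = the rest.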
property.label: viability

compound	reported.result
Cc1cc(C)nc(SCCS(=O)Cc2ccc(Cl)cc2)n1 (stereo not given)	102% (inactive)
O=S(=O)(c1cccc2c(S(=O)(=O)N3CCCC3)cccc12)N1CCCC1	72% (inactive)
CC1=NN(c2ccccc2)C(=O)C1	96% (inactive)
Cc1cc(C)nc(NS(=O)(=O)c2ccc(NC(=O)Cn3c(=O)oc4ccccc43)cc2)n1	89.5% (inactive)
CC(O)c1cc2c(cc1NC(=O)c1cnn3c1NC(c1ccco1)CC3C(F)(F)F)OCO2 (stereo not given)	93% (inactive)
CC(C)NCC(O)COc1ccc(CCOCC2CC2)cc1 (stereo not given)	102% (inactive)
CC(C)CCn1c(SCC#N)nc2c(sc3ccccc32)c1=O	102% (inactive)
COc1ccccc1OCc1ccc(C(=O)Nc2ccncc2)o1	79.5% (inactive)
COc1cc2c3c(c1)/C(=C1/SC(NC(C)=O)=NC1=O)C(=O)N3C(C)(C)C=C2C	91% (inactive)
COc1cccc(-c2nnc3sc(C4CCCCC4)nn23)c1	83% (inactive)
CCOc1ccc(C2C(C(=O)OC)=CN(CCOC)C=C2C(=O)OC)cc1	106% (inactive)
O=C(Nc1nc(-c2ccccc2)cs1)C1CCCO1 (stereo not given)	91% (inactive)
CCOC(=O)COc1ccc(S(=O)(=O)N2CCc3ccccc3C2)cc1	111% (inactive)
COP(C)(=O)c1c(C)nn(-c2ccccc2)c1C (stereo not given)	122% (inactive)
CCOC(=O)c1cc2sc(C)cc2n1CC(=O)Nc1cccc(C)c1C	90% (inactive)
Cc1cccc(N2CCN(C(=O)C3CCCN(S(=O)(=O)c4cnc[nH]4)C3)CC2C)c1 (stereo not given)	90% (inactive)
Cc1ccc(Cn2c(C)nc3c(c2=O)c2nc4ccccc4nc2n3Cc2ccco2)cc1	118% (inactive)
N#Cc1c(N)oc(-c2cccs2)c1-c1cccs1	107% (inactive)
Cc1nc2ccccn2c(=O)c1CCN1CCC(C(=O)c2ccc(F)cc2)CC1	75% (inactive)
O=C1c2ccccc2C(Nc2ccc3nc(-c4cccnc4)[nH]c3c2)N1Cc1ccco1 (stereo not given)	88.5% (inactive)
COc1ccc(C(C)NC(=O)c2ccoc2C)cc1OC (stereo not given)	83% (inactive)
Cc1ccc(C)c(-n2c(Cc3cc(=O)[nH]c(=O)[nH]3)nnc2SCC(=O)NCc2ccco2)c1	131% (inactive)
CC(=O)N(CCc1ccccc1C)Cc1cc2cc3c(cc2[nH]c1=O)OCO3	99% (inactive)
Cc1cc(C)c2c(n1)nn1c(NCCCN3CCOCC3)cc(C)nc21	106% (inactive)
CCn1c(SCC(=O)Nc2ccc3c(c2)OCO3)nnc1-c1cnccn1	89% (inactive)
Cc1ccc(CNC(=O)CCCn2c(=O)c3ccccc3n(CC(=O)NCc3ccco3)c2=O)cc1	90.5% (inactive)
C=CCn1c(SCC(=O)NCC2CCCO2)nc2scc(-c3ccco3)c2c1=O (stereo not given)	112% (inactive)
COC(=O)CSc1nnc(-c2cccs2)n1-c1ccc(Cl)cc1	88% (inactive)
O=C(O)CCn1c(SCc2ccccc2)nc2ccccc21	116% (inactive)
COc1ccc(-c2noc(-c3ccccc3C(=O)Nc3cccnc3)n2)cc1	109% (inactive)
O=C(CNCCC1=CCCCC1)Nc1ccccc1N1CCCCC1	102% (inactive)
C/C(=C\c1ccco1)C1C(C#N)=C(N)OC2=C1C(=O)CC(C)(C)C2 (stereo not given)	110% (inactive)
Cc1nc(-c2coc3cc(OCC(=O)O)ccc3c2=O)cs1	93% (inactive)
O=C(NCCN1CCOCC1)c1ccc(CS(=O)(=O)Cc2ccccc2F)o1	59% (inactive)
Cc1nc(NC2=NCN(CCN3CCOCC3)CN2)nc2c(C)cccc12	114% (inactive)
COc1ccccc1CC(=O)NCC1CCCO1 (stereo not given)	110% (inactive)
CC(C)CN(CC(C)C)C(=O)C12CCC(C)(C(=O)C1)C2(C)C (stereo not given)	74% (inactive)
Cc1onc(-c2ccccc2)c1C(=O)Nc1sc2c(c1C(N)=O)CCC2	88.5% (inactive)
CN=c1sc2ccccc2n1CC(O)COCc1ccco1 (stereo not given)	107% (inactive)
COc1ccc(Cc2nnc3n2N=C(c2cc4ccccc4o2)CS3)cc1OC	77% (inactive)
CCOC(=O)CN1C2=NCCN2c2ccccc21	89.5% (inactive)
CN(C)c1ccc(NC(=O)c2ccncc2)c2ccccc12	113% (inactive)
CCOC(=O)C1CCN(C(C)=C2C(=O)c3ccccc3C2=O)CC1	98% (inactive)
Nc1nnc(SCc2cc3c(cc2Cl)OCO3)s1	118% (inactive)
CCCc1cc(-c2n[nH]c(C)c2-c2ccc(C(=O)OCC)o2)c(O)cc1O	78% (inactive)
